Taken from PubChem BioAssay (NCATS).

# Tested on: NIH3T3
# protocol_text: Cytotoxic Profiling of Annotated Libraries Using Quantitative High-Throughput Screening (AID 1296008); further: on the % scale 0 is the no-effect control and ±100 the full control effect; nearly all actives have a fitted effect of over 60% in size
# condition_label: Five cell lines viability, CellTiter-Glo ATP luminescence, 48-72 h; active compounds read low
# Method: Cell-based phenotypic screening is a commonly used approach to discover biological pathways, novel drug targets, chemical probes and high-quality hit-to-lead molecules. […] A pintool (Kalypsys) was used to transfer 23 nL of compound solution to the 1536-well assay plates. […] Plates were left at room temperature for 10 min before imaging the ATP-coupled luminescence using a ViewLux microplate imager (PerkinElmer, Waltham, MA).
Results filed as inconclusive are left out. *1 amine or outer side, *2 acyl side, *3 side chain or, on linkers, in order; H or OH if unused. Where a SMILES comes first, the peptide text is derived from it. Bridges are numbered along the chain shown (N, C = ends). [ ]: non-standard residue; d: D form. The star is where a group is joined. ξ: configuration not given here. X10 = NC1=NCCC(C(N[*:1])C(=O)[*:2])N1; ΔAla(3-NHCONH2) = NC(=O)NC=C(N)C(=O)O; pGlu = O=C1CC[C@@H](C(=O)O)N1; ξβ3hOrn = NCCCC(N)CC(=O)*; Dap = NC[CH](N)C(=O)O
test_readout: max response (%)
Numbers only, in %.

Before answering, review these 3 worked examples.
COc1cc2nc(Cl)nc(N)c2cc1OC ... -0.129
C/C(=N/NC(=O)c1ccncc1)C(=O)O ... 0.247
CC1(C)O[C@@H]2C[C@H]3[C@@H]4CCC5=CC(=O)C=C[C@]5(C)[C@@]4(F)[C@@H](O)C[C@]3(C)[C@]2(C(=O)CO)O1 ... -1.75

# map each compound to its max response
1. Cc1cccc(N(C)C(=S)Oc2ccc3c(c2)CCC3)c1
2. C=CCOc1cc(Cl)ccc1C(=O)NCCN(CC)CC

1. -6.52
2. 1.31

# map each compound to its max response
1. CC(=O)CC/C=C(\C)CC/C=C(\C)CC/C=C(\C)CCC=C(C)C
2. NCCCC(N)CC(=O)NCC1NC(=O)C(CO)NC(=O)C(N)CNC(=O)C(C2CCN=C(N)N2)NC(=O)C(=CNC(N)=O)NC1=O (stereo not drawn) (H-[Dap]S[Dap](ξβ3hOrn)[ΔAla(3-NHCONH2)][X10]; lactam 1-C; configuration not given here)
3. CCNC(=O)[C@@H]1CCCN1C(=O)[C@H](CCCN=C(N)N)NC(=O)[C@H](CC(C)C)NC(=O)CNC(=O)[C@H](Cc1ccc(O)cc1)NC(=O)[C@H](CO)NC(=O)[C@H](Cc1c[nH]c2ccccc12)NC(=O)[C@H](Cc1cnc[nH]1)NC(=O)[C@@H]1CCC(=O)N1 ([pGlu]HWSYGLRP-NHEt)

1. -3.99
2. -5.75
3. -1.57
